# MIC annotations
tested on: Enterococcus faecalis; assay: In vitro antibacterial activity against vancomycin resistant Enterococcus faecalis (VanA, BM4166); type: functional
Numeric answer only, unit mg/L assumed.

Solved cases below.
{"columns": ["SMILES_STRUCTURE", "TARGET", "MIC, mg/L"],
 "data": [
  ["CN[C@H](CC(C)C)C(=O)N[C@H]1C(=O)N[C@@H](CC(N)=O)C(=O)N[C@H]2C(=O)N[C@H]3C(=O)N[C@H](C(=O)N[C@H](C(=O)O)c4cc(OC)cc(OC)c4-c4cc3ccc4OC)[C@H](O)c3ccc(c(Cl)c3)Oc3cc2cc(c3OC)Oc2ccc(cc2Cl)[C@H]1O", "Enterococcus faecalis", 40],
  ["CN[C@H](CC(C)C)C(=O)N[C@H]1C(=O)N[C@@H](CC#N)C(=O)N[C@H]2C(=O)N[C@H]3C(=O)N[C@H](C(=O)N[C@H](C(=O)O)c4cc(OC)cc(OC)c4-c4cc3ccc4OC)[C@H](O)c3ccc(c(Cl)c3)Oc3cc2cc(c3OC)Oc2ccc(cc2Cl)[C@H]1O", "Enterococcus faecalis", 160]
]}

Now, please, on to the next compound.
Asked: Need MIC, item `CN[C@H](CC(C)C)C(=O)N[C@H]1C(=O)N[C@@H](CC(N)=O)C(=O)N[C@H]2C(=O)N[C@H]3C(=O)N[C@H](C(=O)N[C@H](C(=O)O)c4cc(O)cc(O)c4-c4cc3ccc4O)[C@H](O)c3ccc(c(Cl)c3)Oc3cc2cc(c3O[C@@H]2O[C@H](CO)[C@@H](O)[C@H](O)[C@H]2O[C@H]2C[C@](C)(N)[C@H](O)[C@H](C)O2)Oc2ccc(cc2Cl)[C@H]1O`
Given back: 2000

###

system: Staphylococcus aureus; experiment: In vitro antibacterial activity against methicillin sensitive Staphylococcus aureus (ATCC 25923); format: functional
METRIC_NAME: MIC (µg/mL)
Numeric answer only, unit µg/mL assumed.

Asked: Need MIC, item `CN[C@H](CC(C)C)C(=O)N[C@H]1C(=O)N[C@@H](CC(N)=O)C(=O)N[C@H]2C(=O)N[C@H]3C(=O)N[C@H](C(=O)N[C@H](C(=O)OC)c4cc(O)cc(O)c4-c4cc3ccc4O)[C@H](O)c3ccc(c(Cl)c3)Oc3cc2cc(c3O[C@@H]2O[C@H](CO)[C@@H](O)[C@H](O)[C@H]2O[C@H]2C[C@](C)(N)[C@H](O)[C@H](C)O2)Oc2ccc(cc2Cl)[C@H]1O`
Given back: 2.5

###

tested on: Enterococcus faecalis; test: In vitro antibacterial activity against vancomycin resistant Enterococcus faecalis (VanA, BM4166); format: functional
# MIC annotations
Numeric answer only, unit µg/mL assumed.

Solved cases below.
{"columns": ["SMILES_STRUCTURE", "MIC / µg/mL"],
 "data": [
  ["CN[C@H](CC(C)C)C(=O)N[C@H]1C(=O)N[C@@H](CC#N)C(=O)N[C@H]2C(=O)N[C@H]3C(=O)N[C@H](C(=O)N[C@H](C(=O)OC)c4cc(O)cc(O)c4-c4cc3ccc4O)[C@H](O)c3ccc(c(Cl)c3)Oc3cc2cc(c3O[C@@H]2O[C@H](CO)[C@@H](O)[C@H](O)[C@H]2O[C@H]2C[C@](C)(N)[C@H](O)[C@H](C)O2)Oc2ccc(cc2Cl)[C@H]1O", 640],
  ["CN[C@H](CC(C)C)C(=O)N[C@H]1C(=O)N[C@@H](CC(N)=O)C(=O)N[C@H]2C(=O)N[C@H]3C(=O)N[C@H](C(=O)N[C@H](C(=O)OC)c4cc(OC)cc(OC)c4-c4cc3ccc4OC)[C@H](O)c3ccc(c(Cl)c3)Oc3cc2cc(c3OC)Oc2ccc(cc2Cl)[C@H]1O", 40]
]}

Now, please, on to the next molecule.
Asked: Need MIC, item `CN[C@H](CC(C)C)C(=O)N[C@H]1C(=O)N[C@@H](CC(N)=O)C(=O)N[C@H]2C(=O)N[C@H]3C(=O)N[C@H](C(=O)N[C@H](C(=O)OC)c4cc(O)cc(O)c4-c4cc3ccc4O)[C@H](O)c3ccc(c(Cl)c3)Oc3cc2cc(c3O[C@@H]2O[C@H](CO)[C@@H](O)[C@H](O)[C@H]2O[C@H]2C[C@](C)(N)[C@H](O)[C@H](C)O2)Oc2ccc(cc2Cl)[C@H]1O`
Given back: 640

###

tested on: Staphylococcus aureus; test: In vitro antibacterial activity against methicillin sensitive Staphylococcus aureus (ATCC 25923); assay type: functional
METRIC_NAME: MIC
Your reply should be a number followed by the unit it is expressed in.

Solved cases below.
{"columns": ["SMILES_STRUCTURE", "TARGET", "REPORTED_MEASUREMENT"],
 "data": [
  ["CN[C@H](CC(C)C)C(=O)N[C@H]1C(=O)N[C@@H](CC#N)C(=O)N[C@H]2C(=O)N[C@H]3C(=O)N[C@H](C(=O)N[C@H](C(=O)OC)c4cc(O)cc(O)c4-c4cc3ccc4O)[C@H](O)c3ccc(c(Cl)c3)Oc3cc2cc(c3O)Oc2ccc(cc2Cl)[C@H]1O", "Staphylococcus aureus", "1.25 µg/mL"],
  ["CN[C@H](CC(C)C)C(=O)N[C@H]1C(=O)N[C@@H](CC(N)=O)C(=O)N[C@H]2C(=O)N[C@H]3C(=O)N[C@H](C(=O)N[C@H](C(=O)O)c4cc(O)cc(O)c4-c4cc3ccc4O)[C@H](O)c3ccc(c(Cl)c3)Oc3cc2cc(c3O)Oc2ccc(cc2Cl)[C@H]1O", "Staphylococcus aureus", "0.625 µg/mL"],
  ["CN[C@H](CC(C)C)C(=O)N[C@H]1C(=O)N[C@@H](CC#N)C(=O)N[C@H]2C(=O)N[C@H]3C(=O)N[C@H](C(=O)N[C@H](C(=O)O)c4cc(O)cc(O)c4-c4cc3ccc4O)[C@H](O)c3ccc(c(Cl)c3)Oc3cc2cc(c3O)Oc2ccc(cc2Cl)[C@H]1O", "Staphylococcus aureus", "10 µg/mL"],
  ["CN[C@H](CC(C)C)C(=O)N[C@H]1C(=O)N[C@@H](CC(N)=O)C(=O)N[C@H]2C(=O)N[C@H]3C(=O)N[C@H](C(=O)N[C@H](C(=O)OC)c4cc(O)cc(O)c4-c4cc3ccc4O)[C@H](O)c3ccc(c(Cl)c3)Oc3cc2cc(c3O)Oc2ccc(cc2Cl)[C@H]1O", "Staphylococcus aureus", "5 µg/mL"],
  ["CN[C@H](CC(C)C)C(=O)N[C@H]1C(=O)N[C@@H](CC#N)C(=O)N[C@H]2C(=O)N[C@H]3C(=O)N[C@H](C(=O)N[C@H](C(=O)OC)c4cc(OC)cc(OC)c4-c4cc3ccc4OC)[C@H](O)c3ccc(c(Cl)c3)Oc3cc2cc(c3OC)Oc2ccc(cc2Cl)[C@H]1O", "Staphylococcus aureus", "0.625 µg/mL"]
]}

Asked: Need MIC, item `CN[C@H](CC(C)C)C(=O)N[C@H]1C(=O)N[C@@H](CC#N)C(=O)N[C@H]2C(=O)N[C@H]3C(=O)N[C@H](C(=O)N[C@H](C(=O)O)c4cc(O)cc(O)c4-c4cc3ccc4O)[C@H](O)c3ccc(c(Cl)c3)Oc3cc2cc(c3O[C@@H]2O[C@H](CO)[C@@H](O)[C@H](O)[C@H]2O[C@H]2C[C@](C)(N)[C@H](O)[C@H](C)O2)Oc2ccc(cc2Cl)[C@H]1O`
Given back: 20 µg/mL

Asked: Need MIC, item `CN[C@H](CC(C)C)C(=O)N[C@H]1C(=O)N[C@@H](CC#N)C(=O)N[C@H]2C(=O)N[C@H]3C(=O)N[C@H](C(=O)N[C@H](C(=O)O)c4cc(OC)cc(OC)c4-c4cc3ccc4OC)[C@H](O)c3ccc(c(Cl)c3)Oc3cc2cc(c3OC)Oc2ccc(cc2Cl)[C@H]1O`
Given back: 0.31 µg/mL

###

# MIC annotations
tested on: Enterococcus faecalis; assay: In vitro antibacterial activity against vancomycin resistant Enterococcus faecalis (VanA, BM4166); type: functional
Numeric answer only, unit µg/mL assumed.

Solved cases below.
{"columns": ["SMILES_STRUCTURE", "METRIC_NAME", "UOM", "REPORTED_MEASUREMENT"],
 "data": [
  ["CN[C@H](CC(C)C)C(=O)N[C@H]1C(=O)N[C@@H](CC#N)C(=O)N[C@H]2C(=O)N[C@H]3C(=O)N[C@H](C(=O)N[C@H](C(=O)O)c4cc(O)cc(O)c4-c4cc3ccc4O)[C@H](O)c3ccc(c(Cl)c3)Oc3cc2cc(c3O[C@@H]2O[C@H](CO)[C@@H](O)[C@H](O)[C@H]2O[C@H]2C[C@](C)(N)[C@H](O)[C@H](C)O2)Oc2ccc(cc2Cl)[C@H]1O", "MIC", "µg/mL", 320],
  ["CN[C@H](CC(C)C)C(=O)N[C@H]1C(=O)N[C@@H](CC#N)C(=O)N[C@H]2C(=O)N[C@H]3C(=O)N[C@H](C(=O)N[C@H](C(=O)O)c4cc(O)cc(O)c4-c4cc3ccc4O)[C@H](O)c3ccc(c(Cl)c3)Oc3cc2cc(c3O)Oc2ccc(cc2Cl)[C@H]1O", "MIC", "µg/mL", 640],
  ["CN[C@H](CC(C)C)C(=O)N[C@H]1C(=O)N[C@@H](CC(N)=O)C(=O)N[C@H]2C(=O)N[C@H]3C(=O)N[C@H](C(=O)N[C@H](C(=O)O)c4cc(O)cc(O)c4-c4cc3ccc4O)[C@H](O)c3ccc(c(Cl)c3)Oc3cc2cc(c3O)Oc2ccc(cc2Cl)[C@H]1O", "MIC", "µg/mL", 640]
]}

Asked: Need MIC, item `CN[C@H](CC(C)C)C(=O)N[C@H]1C(=O)N[C@@H](CC#N)C(=O)N[C@H]2C(=O)N[C@H]3C(=O)N[C@H](C(=O)N[C@H](C(=O)OC)c4cc(O)cc(O)c4-c4cc3ccc4O)[C@H](O)c3ccc(c(Cl)c3)Oc3cc2cc(c3O)Oc2ccc(cc2Cl)[C@H]1O`
Given back: 320

Asked: Need MIC, item `CN[C@H](CC(C)C)C(=O)N[C@H]1C(=O)N[C@@H](CC(N)=O)C(=O)N[C@H]2C(=O)N[C@H]3C(=O)N[C@H](C(=O)N[C@H](C(=O)OC)c4cc(O)cc(O)c4-c4cc3ccc4O)[C@H](O)c3ccc(c(Cl)c3)Oc3cc2cc(c3O)Oc2ccc(cc2Cl)[C@H]1O`
Given back: 640

Asked: Need MIC, item `CN[C@H](CC(C)C)C(=O)N[C@H]1C(=O)N[C@@H](CC#N)C(=O)N[C@H]2C(=O)N[C@H]3C(=O)N[C@H](C(=O)N[C@H](C(=O)OC)c4cc(OC)cc(OC)c4-c4cc3ccc4OC)[C@H](O)c3ccc(c(Cl)c3)Oc3cc2cc(c3OC)Oc2ccc(cc2Cl)[C@H]1O`
Given back: 40
